Data provenance: ChEMBL document CHEMBL5620432

experiment: Drug concentration in mouse brain at 2 mg/kg,sc measured after 60 mins by ICP-MS analysis; assay type: ADME, organism-based; settings: read-out: Ct
MEASUREMENT LABEL: concentration at 1 h (ng/g)
Give bare numbers, in ng/g.

query: Using the record for CN(C)C(CNC(=O)NCc1cccc(Cl)c1)c1cccc(F)c1 (stereo unspecified) , report its concentration at 1 h.
result: 237

###

Provide the recorded EC50 for the entries that follow.
biological target: Mu-type opioid receptor (Homo sapiens, UniProt P35372); assay: Agonist activity at human MOR expressed in CHO-K1 cells co-expressed with Galphai by cAMP assay; assay type: functional, cell-based
Sequence (P35372 whole entry): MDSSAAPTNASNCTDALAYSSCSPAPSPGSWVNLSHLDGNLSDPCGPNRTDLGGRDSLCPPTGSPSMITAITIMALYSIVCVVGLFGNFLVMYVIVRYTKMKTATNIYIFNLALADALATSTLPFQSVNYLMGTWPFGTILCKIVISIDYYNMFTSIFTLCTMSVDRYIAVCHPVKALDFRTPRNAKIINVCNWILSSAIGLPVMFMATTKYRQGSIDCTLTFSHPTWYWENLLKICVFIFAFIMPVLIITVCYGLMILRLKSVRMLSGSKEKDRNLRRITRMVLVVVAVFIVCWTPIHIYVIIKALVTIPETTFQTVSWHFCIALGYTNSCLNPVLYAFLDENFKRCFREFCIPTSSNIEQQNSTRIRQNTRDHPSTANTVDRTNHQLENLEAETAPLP
Give bare numbers, in nM.

// below: answered molecules
molecule="CN(C)C(CNC(=O)Nc1cccc(Cl)c1)c1cccc(F)c1 (stereo not given)" value_observed=0.1
molecule="CN(C)C(CNC(=O)NCc1ccc(C(F)(F)F)cc1)c1cccc(F)c1 (stereo not given)" value_observed=0.19
molecule="CN(C)C(CNC(=O)NCCCc1ccccc1)c1cccc(F)c1 (stereo not given)" value_observed=0.631
molecule="CN(C)C(CNC(=O)NCc1cccc(Cl)c1)c1cccc(F)c1 (stereo not given)" value_observed=0.000102
molecule="Cc1cccc(CNC(=O)NCC(c2cccc(F)c2)N(C)C)c1 (stereo not given)" value_observed=0.526

Please give EC50 for each item listed below.
1. CN(C)C(CNC(=O)NCc1cccc(C(F)(F)F)c1)c1cccc(F)c1 (stereo not given)
2. CN1CCc2ccccc2C1CNC(=O)c1ccc(Cl)c(Cl)c1 (stereo not given)
3. CN(C)C(CNC(=O)NCCc1cccc(F)c1)c1cccc(F)c1 (stereo not given)
4. CN(C)C(CNC(=O)NCCc1ccccc1)c1cccc(F)c1 (stereo not given)
5. CN(C)C(CNC(=O)NCc1ccc(OC(F)(F)F)cc1)c1cccc(F)c1 (stereo not given)
6. CN(C)C(CNC(=O)NCCc1cccc(C(F)(F)F)c1)c1cccc(F)c1 (stereo not given)
7. CN(C)C(CNC(=O)NCc1ccc(Cl)cc1)c1cccc(F)c1 (stereo not given)

result:
[0.00066, 0.0234, 0.000374, 21, 1.52, 0.0186, 0.00033]

###

molecular target: Nociceptin receptor (Homo sapiens, UniProt P41146); assay: Agonist activity at human NOP receptor expressed in CHO-K1 cells co-expressed with Galphai by cAMP assay relative to control; assay type: functional, cell-based; conditions: filed as agonist
Sequence (P41146 whole entry): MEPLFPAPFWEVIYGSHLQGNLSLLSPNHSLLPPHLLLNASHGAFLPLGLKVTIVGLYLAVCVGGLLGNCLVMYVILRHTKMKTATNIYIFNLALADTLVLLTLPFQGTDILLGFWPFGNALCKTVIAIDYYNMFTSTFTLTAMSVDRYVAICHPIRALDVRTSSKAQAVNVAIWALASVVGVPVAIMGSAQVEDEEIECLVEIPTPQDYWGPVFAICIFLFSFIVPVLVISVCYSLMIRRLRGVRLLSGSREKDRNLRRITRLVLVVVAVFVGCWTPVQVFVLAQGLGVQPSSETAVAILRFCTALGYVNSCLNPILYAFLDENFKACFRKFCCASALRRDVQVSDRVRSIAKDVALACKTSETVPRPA
MEASUREMENT LABEL: Emax (%)
Answers are plain numbers, in %.

// below: answered compounds
compound="Cc1ccc(CCNC(=O)NCC(c2cccc(F)c2)N(C)C)cc1 (stereo unspecified)" value_observed=76.9
compound="CN(C)C(CNC(=O)NCCc1ccccc1)c1cccc(F)c1 (stereo unspecified)" value_observed=72
compound="Cc1cccc(CCNC(=O)NCC(c2cccc(F)c2)N(C)C)c1 (stereo unspecified)" value_observed=67
compound="CN(C)C(CNC(=O)NCc1ccc(OC(F)(F)F)cc1)c1cccc(F)c1 (stereo unspecified)" value_observed=61.9
compound="Cc1cccc(CNC(=O)NCC(c2cccc(F)c2)N(C)C)c1 (stereo unspecified)" value_observed=67.1
compound="CN(C)C(CNC(=O)NCCc1cccc(Cl)c1)c1cccc(F)c1 (stereo unspecified)" value_observed=91.6

Please give Emax for each item listed below.
1. CN(C)C(CNC(=O)NCCc1ccc(F)cc1)c1cccc(F)c1 (stereo unspecified)
2. CN(C)C(CNC(=O)NCCCc1ccccc1)c1cccc(F)c1 (stereo unspecified)
3. CN(C)C(CNC(=O)Nc1ccc(Cl)c(Cl)c1)c1cccc(F)c1 (stereo unspecified)

result:
58.4
66.6
74.1

Please give Emax for each item listed below.
1. CN1CCc2ccccc2C1CNC(=O)c1ccc(Cl)c(Cl)c1 (stereo unspecified)
2. CN(C)C(CNC(=O)NCCc1ccc(C(F)(F)F)cc1)c1cccc(F)c1 (stereo unspecified)

result:
1: 87; 2: 57.5

###

assay: Drug concentration in mouse brain at 2 mg/kg,sc measured after 5 mins by ICP-MS analysis; assay type: ADME, organism-based; details: read-out: Ct
MEASUREMENT LABEL: concentration at 5 min (ng/g)
Numbers only, in ng/g.

query: Using the record for CN(C)C(CNC(=O)NCc1cccc(Cl)c1)c1cccc(F)c1 (stereo unspecified) , report its concentration at 5 min.
result: 838

###

system: Mus musculus; assay: Antinociceptive activity in wild type C57BL/6 mouse assessed as maximum possible effect at 12 mg/kg measured upto 60 mins by tail-flick test; format: functional; settings: 1 h
Provide the recorded MPE for the entries that follow.
One number for each entry, in %.

// below: answered molecules
molecule="CN(C)C(CNC(=O)NCCc1cccc(F)c1)c1cccc(F)c1 (configuration not stated)" experimental_target="Mus musculus" measurement_label=MPE value_observed=0
molecule="CN(C)C(CNC(=O)NCc1ccc(F)cc1)c1cccc(F)c1 (configuration not stated)" experimental_target="Mus musculus" measurement_label=MPE value_observed=100
molecule="CN(C)C(CNC(=O)NCCc1cccc(Cl)c1)c1cccc(F)c1 (configuration not stated)" experimental_target="Mus musculus" measurement_label=MPE value_observed=0
molecule="CN(C)C(CNC(=O)NCc1ccc(C(F)(F)F)cc1)c1cccc(F)c1 (configuration not stated)" experimental_target="Mus musculus" measurement_label=MPE value_observed=0
molecule="CN(C)C(CNC(=O)NCCc1ccc(C(F)(F)F)cc1)c1cccc(F)c1 (configuration not stated)" experimental_target="Mus musculus" measurement_label=MPE value_observed=39.05

Please give MPE for each item listed below.
1. CN(C)C(CNC(=O)NCc1cccc(Cl)c1)c1cccc(F)c1 (configuration not stated)
2. Cc1cccc(CCNC(=O)NCC(c2cccc(F)c2)N(C)C)c1 (configuration not stated)

result:
[100, 0]

###

biological target: Nociceptin receptor (Homo sapiens, UniProt P41146); experiment: Agonist activity at human NOP receptor expressed in CHO-K1 cells assessed as beta arrestin-2 recruitment; assay type: functional, cell-based
MEASUREMENT LABEL: EC50 (nM)
One number for each entry, in nM.

query: Using the record for CN(C)C(CNC(=O)NCc1cccc(Cl)c1)c1cccc(F)c1 (stereo unspecified) , report its EC50.
result: 0.2

###

target: Nociceptin receptor (Homo sapiens); assay: Agonist activity at human NOP receptor expressed in CHO-K1 cells co-expressed with Galphai by cAMP assay relative to control; format: functional, cell-based; details: filed as agonist
MEASUREMENT LABEL: Emax
Reply with the number and its unit after it.

// below: answered compounds
compound="CN(C)C(CNC(=O)NCc1ccc(F)cc1)c1cccc(F)c1 (stereo not drawn)" value_observed=93.2%
compound="CN(C)C(CNC(=O)NC1CCCC1)c1cccc(F)c1 (stereo not drawn)" value_observed=67.1%
compound="CN(C)C(CNC(=O)NCCc1cccc(F)c1)c1cccc(F)c1 (stereo not drawn)" value_observed=92.6%
compound="CN(C)C(CNC(=O)NCc1cccc(Cl)c1)c1cccc(F)c1 (stereo not drawn)" value_observed=91.6%
compound="CN(C)C(CNC(=O)NCc1cccc(OC(F)(F)F)c1)c1cccc(F)c1 (stereo not drawn)" value_observed=80.4%

Please give Emax for each item listed below.
1. CN(C)C(CNC(=O)NCc1cccc(F)c1)c1cccc(F)c1 (stereo not drawn)
2. CN(C)C(CNC(=O)NCc1ccc(C(F)(F)F)cc1)c1cccc(F)c1 (stereo not drawn)
3. CN(C)C(CNC(=O)NCCc1ccc(Cl)cc1)c1cccc(F)c1 (stereo not drawn)

result:
["89.8%", "92.3%", "53.9%"]

###

target: Nociceptin receptor (Homo sapiens)
MEASUREMENT LABEL: Ki
Reply with the number and its unit after it.

query: Using the record for CN(C)C(CNC(=O)NCc1cccc(Cl)c1)c1cccc(F)c1 (stereo unspecified) , report its Ki.
result: 0.2 nM

###

assay: Drug concentration in mouse plasma at 2 mg/kg,sc measured after 60 mins by ICP-MS analysis; assay type: ADME, organism-based
MEASUREMENT LABEL: concentration at 1 h
Reply with the number and its unit after it.

query: Using the record for CN(C)C(CNC(=O)NCc1cccc(Cl)c1)c1cccc(F)c1 (stereo unspecified) , report its concentration at 1 h.
result: 0.119 µg/mL

###

Provide the recorded Emax for the entries that follow.
biological target: Mu-type opioid receptor (Homo sapiens); assay: Agonist activity at human MOR expressed in CHO-K1 cells co-expressed with Galphai by cAMP assay relative to control; format: functional, cell-based; details: filed as agonist
One number for each entry, in %.

molecule="Cc1ccc(CNC(=O)NCC(c2cccc(F)c2)N(C)C)cc1 (stereo not drawn)" unit_spec=% value_observed=88
molecule="CN(C)C(CNC(=O)NCc1cccc(OC(F)(F)F)c1)c1cccc(F)c1 (stereo not drawn)" unit_spec=% value_observed=77.9

Please give Emax for each item listed below.
1. CN(C)C(CNC(=O)NCCc1cccc(Cl)c1)c1cccc(F)c1 (stereo not drawn)
2. CN(C)C(CNC(=O)NCc1ccc(F)cc1)c1cccc(F)c1 (stereo not drawn)

result:
89.9
96.1

Please give Emax for each item listed below.
1. CN(C)C(CNC(=O)NCCc1ccc(F)cc1)c1cccc(F)c1 (stereo not drawn)
2. CN(C)C(CNC(=O)NCCc1ccc(Cl)cc1)c1cccc(F)c1 (stereo not drawn)
3. CN(C)C(CNC(=O)NCc1cccc(C(F)(F)F)c1)c1cccc(F)c1 (stereo not drawn)
4. CN(C)C(CNC(=O)NCCc1cccc(C(F)(F)F)c1)c1cccc(F)c1 (stereo not drawn)

result:
1: 81.1; 2: 72.4; 3: 85.2; 4: 74.1

Please give Emax for each item listed below.
1. CN(C)C(CNC(=O)NCCc1ccccc1)c1cccc(F)c1 (stereo not drawn)
2. CN(C)C(CNC(=O)Nc1cccc(Cl)c1)c1cccc(F)c1 (stereo not drawn)
3. CN1CCc2ccccc2C1CNC(=O)c1ccc(Cl)c(Cl)c1 (stereo not drawn)
4. CN(C)C(CNC(=O)NCc1ccc(C(F)(F)F)cc1)c1cccc(F)c1 (stereo not drawn)
5. CN(C)C(CNC(=O)NCc1cccc(F)c1)c1cccc(F)c1 (stereo not drawn)
6. CN(C)C(CNC(=O)Nc1ccc(Cl)c(Cl)c1)c1cccc(F)c1 (stereo not drawn)

result:
1. 86.6
2. 72.5
3. 93.6
4. 93.3
5. 91.2
6. 68.5

Please give Emax for each item listed below.
1. Cc1cccc(CCNC(=O)NCC(c2cccc(F)c2)N(C)C)c1 (stereo not drawn)
2. CN(C)C(CNC(=O)NCc1ccc(Cl)cc1)c1cccc(F)c1 (stereo not drawn)
3. CN(C)C(CNC(=O)NCCCc1ccccc1)c1cccc(F)c1 (stereo not drawn)
4. CN(C)C(CNC(=O)NCc1cccc(Cl)c1)c1cccc(F)c1 (stereo not drawn)
5. Cc1ccc(CCNC(=O)NCC(c2cccc(F)c2)N(C)C)cc1 (stereo not drawn)
6. CN(C)C(CNC(=O)NCc1ccc(OC(F)(F)F)cc1)c1cccc(F)c1 (stereo not drawn)

result:
89.7
84.7
80.2
92.5
80.7
76.9
